System: HEK293T-Rex ERSE-FLuc
Measurement Protocol: ERSE-FLuc reporter activation, triplicate confirmation, relative to 500 nM thapsigargin (% of thapsigargin); higher = stronger ATF6/ERSE reporter activation
Conditions: 6.8 µM; 18 h; screen: confirmation
Endpoint: ERSE-FLuc reporter activation

### Prompt What does the record list as ERSE-FLuc reporter activation for O=C(Nc1ccc2c(c1)OCCO2)C(=O)Nc1ccccc1Cl ?
### Response 27

### Prompt Any idea what its ERSE-FLuc reporter activation is? The molecule is Cc1ccc(/C=N/NC(=O)c2cccc(F)c2)cc1
### Response 27.1

### Prompt What does the record list as ERSE-FLuc reporter activation for Cc1ccc(O)c(-c2cc(-c3cccs3)[nH]n2)c1 ?
### Response 44.2

### Prompt Which ERSE-FLuc reporter activation value belongs to Cc1ccn2cc(-c3ccc(O)c(O)c3)nc2c1 ?
### Response 36.4

### Prompt Which ERSE-FLuc reporter activation value is on record for CN(C)c1ccc(-c2nc3ccc(N)cc3[nH]2)cc1 ?
### Response 32.7

### Prompt Entry under review: O=C(/C=C/c1ccccc1)Nc1ccc(Br)cn1 . Reported ERSE-FLuc reporter activation?
### Response 27.6

### Prompt Recorded ERSE-FLuc reporter activation for CCOc1ccc(NC(=O)c2cccc(F)c2)c([N+](=O)[O-])c1 , please?
### Response 25.9

### Prompt Requested read-out: ERSE-FLuc reporter activation. Entry: COc1ccc(/C=C/c2ccc3cccc(OC(C)=O)c3n2)cc1OC(C)=O
### Response 39.7

### Prompt Give the measured ERSE-FLuc reporter activation of O=[N+]([O-])c1ccc2nc(/C=C/c3ccccc3)[nH]c2c1 .
### Response 25.2

### Prompt # lookup: ERSE-FLuc reporter activation of Cc1ccc2nc(/C(C#N)=C/c3ccc(O)cc3)[nH]c2c1
### Response 30.3

### Prompt Which measured ERSE-FLuc reporter activation value corresponds to C/C(=N\NC(=O)c1n[nH]c2c1CCCC2)c1ccc2ccccc2c1 ?
### Response 30.7

### Prompt Need ERSE-FLuc reporter activation of Oc1cccc(Nc2nc(-c3ccc(O)c(O)c3)cs2)c1 , thanks.
### Response 26.1

### Prompt Which ERSE-FLuc reporter activation value belongs to COc1ccc(/C=C/c2nc3cc([N+](=O)[O-])ccc3s2)cc1O ?
### Response 25.5

### Prompt Query: ERSE-FLuc reporter activation; subject: CN(C)/C=N/C1=C(C#N)C(c2ccc3c(c2)OCO3)c2ccc3ccccc3c2O1 (centres undefined)
### Response 26.1

### Prompt Which measured ERSE-FLuc reporter activation value corresponds to O=C(N/N=C/c1ccc(Cl)cc1)c1n[nH]c2c1CCCC2 ?
### Response 42

### Prompt Item under review: CC(C)CC(c1nnnn1C1CCCC1)N1CCN(C(=O)c2ccco2)CC1 (centres undefined) . Reported ERSE-FLuc reporter activation?
### Response 29.5

### Prompt Look at this molecule and give its reported ERSE-FLuc reporter activation. Cc1ccccc1-c1cc(=O)c2cc(Cl)ccc2o1
### Response 25.5

### Prompt Given the molecule COc1ccc(C(=O)Nc2nnc(-c3cccs3)s2)cc1 , what is its reported ERSE-FLuc reporter activation?
### Response 26.3

### Prompt Name the reported ERSE-FLuc reporter activation value associated with the molecule O=[N+]([O-])c1ccc(/C=C/c2ccc(O)cc2)cc1
### Response 28.8

### Prompt Returns the measured ERSE-FLuc reporter activation for the input molecule. Input: COc1cn(-c2ccc(F)cc2)nc1C(=O)Nc1ccccc1SC
### Response 62.7

### Prompt What measured ERSE-FLuc reporter activation goes with Nc1nc(Nc2ccc(Cl)cc2)nc2ccccc12 ?
### Response 30.7

### Prompt Which ERSE-FLuc reporter activation value belongs to Nc1ccc2nc(-c3ccccn3)[nH]c2c1 ?
### Response 26.8

### Prompt Param item = CN(C)c1ccc(C(=NO)c2ccc(N(C)C)cc2)cc1 ; retrieve measured ERSE-FLuc reporter activation.
### Response 28

### Prompt Reported ERSE-FLuc reporter activation for Nc1ccccc1NC(=O)c1ccc(C(=O)Nc2ccccc2N)cc1 : what is it?
### Response 25.1
